Conditions: in cyclohexane, 323.15 K
valueType: solubility (mole fraction)

> print(dat)
                smilesrepr                   valuetype  measured
1  Cc1cc(C)nc(Nc2ccccc2)n1  solubility (mole fraction)    0.0614

* * *

Conditions: in n-propanol, 308.15 K
valueType: solubility (mole fraction)

> print(dat)
                smilesrepr  measured
1  Cc1cc(C)nc(Nc2ccccc2)n1    0.0481

* * *

Settings: in methanol, 313.15 K
valueType: solubility (mole fraction)

> print(dat)
                smilesrepr                   valuetype  measured
1  Cc1cc(C)nc(Nc2ccccc2)n1  solubility (mole fraction)    0.0568
